- assayed-target: CDK6/Cyclin D1 (Homo sapiens (Human))
- experiment-notes: biochemical
- applied-conditions: CDK6_Ki (nM), non-phosphorylated CDK6/Cyclin D1, 2 mM ATP, Morrison fit
endpoint-name: Ki (nM)

Recorded results for 2 compounds are shown here.
CNS(=O)(=O)N1CCC(Nc2ncc3cc(F)c(=O)n([C@@H]4CCC[C@@]4(C)O)c3n2)CC1 (single isomer, unassigned): 3.84
Cc1cc2cnc(NC3CCN(S(=O)(=O)CC(F)(F)F)CC3)nc2n([C@@H]2CCC[C@@]2(C)O)c1=O (single isomer, unassigned): 4.36

I = CS(=O)(=O)N1CC[C@H](Nc2ncc3cc(CC(N)=O)c(=O)n(C4CCCC4)c3n2)[C@@H](F)C1 (single isomer, unassigned)
II = Cc1cc2cnc(NC3CCN(S(=O)(=O)C4CCS(=O)(=O)C4)CC3)nc2n([C@@H]2CCC[C@@]2(C)O)c1=O (single isomer, unassigned; isomer d) [Example 109]
Of I and II , which shows the smaller Ki value? Reply with the label of the item you choose.
II
(II: 0.19 nM, I: 3.55 nM)

====

- assayed-target: CDK6/Cyclin D1 (Homo sapiens (Human), UniProt Q00534)
- Sequence (Q00534 whole entry): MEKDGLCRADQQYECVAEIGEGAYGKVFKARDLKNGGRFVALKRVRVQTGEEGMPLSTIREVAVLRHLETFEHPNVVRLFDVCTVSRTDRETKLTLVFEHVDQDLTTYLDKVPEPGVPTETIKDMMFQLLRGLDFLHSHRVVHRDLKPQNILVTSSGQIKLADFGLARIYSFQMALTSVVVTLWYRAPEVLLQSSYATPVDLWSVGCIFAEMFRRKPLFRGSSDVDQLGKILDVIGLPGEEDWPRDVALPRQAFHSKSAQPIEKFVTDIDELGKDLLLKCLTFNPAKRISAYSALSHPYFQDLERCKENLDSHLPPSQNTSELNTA
- Sequence (P24385 whole entry partner): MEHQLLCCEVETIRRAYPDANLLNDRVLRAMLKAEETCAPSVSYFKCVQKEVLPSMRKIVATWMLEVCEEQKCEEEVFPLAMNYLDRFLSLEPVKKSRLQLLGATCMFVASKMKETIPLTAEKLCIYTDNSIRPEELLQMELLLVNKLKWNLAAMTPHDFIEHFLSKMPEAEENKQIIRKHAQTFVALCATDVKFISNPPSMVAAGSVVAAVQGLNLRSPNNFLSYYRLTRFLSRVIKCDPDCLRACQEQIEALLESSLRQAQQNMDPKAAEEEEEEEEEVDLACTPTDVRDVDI
- experiment-notes: biochemical
- applied-conditions: CDK6_Ki (nM), non-phosphorylated CDK6/Cyclin D1, 2 mM ATP, Morrison fit
endpoint-name: Ki (nM)

Recorded results for 2 compounds are shown here.
C[C@]1(O)CCC[C@@H]1n1c(=O)c(Cl)cc2cnc(NC3CCN(S(N)(=O)=O)CC3)nc21 (single isomer, unassigned): 5.73
CC[C@@]1(O)CCC[C@H]1n1c(=O)c(Cl)cc2cnc(NC3CCN(S(C)(=O)=O)CC3)nc21 (single isomer, unassigned): 4.68

P = Cc1cc2cnc(NC3CCN(S(=O)(=O)C4CC4)CC3)nc2n([C@H]2CCC[C@]2(C)O)c1=O (single isomer, unassigned)
Q = CS(=O)(=O)N1CC[C@@H](Nc2ncc3cc(Cl)c(=O)n(C4CCCC4)c3n2)[C@@H](F)C1 (single isomer, unassigned)
R = C[C@@H]1[C@H](O)CCC[C@H]1n1c(=O)ccc2cnc(NC3CCN(S(C)(=O)=O)CC3)nc21 (single isomer, unassigned)
S = C[C@@H]1[C@H](O)CC[C@H]1n1c(=O)ccc2cnc(NC3CCN(S(C)(=O)=O)CC3)nc21 (single isomer, unassigned)
With regard to Ki, arrange the entries in ascending order, please. Lab note: final answer is the ordered label list.
R, S, Q, P
(R: 0.36 nM, S: 0.85 nM, Q: 2.23 nM, P: 4.15 nM)

====

- assayed-target: CDK6/Cyclin D1 (Homo sapiens (Human))
- experiment-notes: biochemical
- applied-conditions: CDK6_Ki (nM), non-phosphorylated CDK6/Cyclin D1, 2 mM ATP, Morrison fit
endpoint-name: Ki (nM)

Recorded results for 2 molecules are shown here.
CNS(=O)(=O)N1CCC(Nc2ncc3cc(C)c(=O)n(C4CCCC4)c3n2)CC1: 0.62
CS(=O)(=O)N1CCC(Nc2ncc3ccc(=O)n([C@@H]4C[C@@H](O)CC[C@H]4F)c3n2)CC1 (single isomer, unassigned): 14.3

I = C[C@@]1(O)CCC[C@H]1n1c(=O)c(CCO)cc2cnc(NC3CCN(S(C)(=O)=O)CC3)nc21 (single isomer, unassigned)
II = C[C@H]1CCC[C@H]1n1c(=O)c(Cl)cc2cnc(NC3CCN(S(C)(=O)=O)CC3)nc21
III = CCS(=O)(=O)N1CCC(Nc2ncc3ccc(=O)n(C4CCCC4)c3n2)CC1
IV = COCCS(=O)(=O)N1CCC(Nc2ncc3cc(C)c(=O)n([C@H]4CCC[C@]4(C)O)c3n2)CC1 (single isomer, unassigned)
Rank order required: Ki, descending. Lab note: final answer is the ordered label list.
IV, III, II, I
(IV: 3.17 nM, III: 1.14 nM, II: 0.42 nM, I: 0.23 nM)
